target: T1, recombinant SARS-CoV-2 Spike RBD domain, BA.2.86 variant (SARS-CoV-2); assay: ELISA on coated RBD
T1 construct: also called RBD BA.2.86 variant
measured_parameter: Binding AUC
Returns: the value as a bare number; no unit string appended.

Consider the following illustrative entries.
SPK002M A2 antibody (antibody, human IgG1, kappa, V domains shown) VH: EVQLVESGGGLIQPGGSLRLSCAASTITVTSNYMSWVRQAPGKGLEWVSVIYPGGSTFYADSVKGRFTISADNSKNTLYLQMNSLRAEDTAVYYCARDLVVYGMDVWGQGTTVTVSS VL: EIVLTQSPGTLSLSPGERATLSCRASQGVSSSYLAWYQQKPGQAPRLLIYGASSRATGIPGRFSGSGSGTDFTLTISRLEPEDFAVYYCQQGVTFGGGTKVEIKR ... 38
SPK002M A5 antibody (antibody, human IgG1, kappa, V domains shown) VH: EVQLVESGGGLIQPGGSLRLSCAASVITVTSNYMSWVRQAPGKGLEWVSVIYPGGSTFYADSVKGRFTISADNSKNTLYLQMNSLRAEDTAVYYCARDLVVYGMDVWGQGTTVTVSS VL: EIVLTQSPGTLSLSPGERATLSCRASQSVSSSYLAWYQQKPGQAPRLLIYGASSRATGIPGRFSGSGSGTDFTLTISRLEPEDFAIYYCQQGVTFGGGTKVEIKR ... 38

Moving on to the next binder.
Data request: Item SPK002M B1 antibody (antibody, human IgG1, kappa, V domains shown) VH: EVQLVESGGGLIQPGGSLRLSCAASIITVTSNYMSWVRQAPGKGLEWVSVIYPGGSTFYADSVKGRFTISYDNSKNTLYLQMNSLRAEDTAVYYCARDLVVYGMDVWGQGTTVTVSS VL: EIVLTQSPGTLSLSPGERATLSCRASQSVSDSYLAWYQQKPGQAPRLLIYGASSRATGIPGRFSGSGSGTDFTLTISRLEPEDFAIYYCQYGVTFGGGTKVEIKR has what recorded Binding AUC?
Data returned: 39

FYI, the data here is from patent US12281155.
